test system: RAW-Dual (murine macrophage reporter line); experiment: IRF reporter (Lucia luciferase) activity fold change vs agonist alone; higher = enhanced IRF activity; conditions: modulator concentration 10 µM; agonist: 3'3'-cGAMP 10 ug/mL
Please mark true (1) if the recorded IRF reporter is equal to or greater than 1, and false (0) if it falls below.

Record excerpt, results attached:
>  <MOLECULE>
CC(=O)n1cc(C=C(C)[N+](=O)[O-])c2ccccc21

>  <CLASS_NAME>
false (0)

$$$$
>  <MOLECULE>
Cc1ccc(OCCCOc2cccc3cccnc23)c(C)c1

>  <CLASS_NAME>
false (0)

$$$$
>  <MOLECULE>
NC(CO)(CO)CO.O=C(c1ccccc1)c1ccc2n1CCC2C(=O)O (configuration not stated)

>  <CLASS_NAME>
false (0)

$$$$

Test whether the molecule Cc1ccc(Cn2c(N)nc3ccccc32)cc1 records IRF reporter of 1 or higher.
true (1)

Test whether the molecule Cl.c1ccc(CC2=NCCN2)cc1 records IRF reporter of 1 or higher.
false (0)

Test whether the molecule CC(=O)Oc1ccc2c(C)c(Cl)c(=O)oc2c1C records IRF reporter of 1 or higher.
false (0)

Test whether the molecule Cc1cc(C)n(CCC(=O)N2CCc3nc4ccc(F)cn4c(=O)c3C2)n1 records IRF reporter of 1 or higher.
true (1)

Test whether the molecule Cl.Cl.O=C(O)COCCN1CCN(C(c2ccccc2)c2ccc(Cl)cc2)CC1 (configuration not stated) records IRF reporter of 1 or higher.
false (0)

* * *

system: RAW-Dual (murine macrophage reporter line); assay: NF-kB reporter (SEAP) activity fold change vs agonist alone; higher = enhanced NF-kB activity; conditions: modulator concentration 10 µM; agonist: CpG ODN 1826 0.5 ug/mL
ASSAY_ENDPOINT: NF-kB reporter
Reply with the value as a number alone.

>  <COMPOUND>
CCN(CC)c1nc(-c2ccccc2Cl)c2cc(Br)ccc2n1

>  <ASSAY_TARGET>
RAW-Dual (murine macrophage reporter line)

>  <QUANTITATIVE_RESULT>
0.999

$$$$
>  <COMPOUND>
CN(C)c1cncc(OC2CCN(S(C)(=O)=O)C2)n1 (centres undefined)

>  <ASSAY_TARGET>
RAW-Dual (murine macrophage reporter line)

>  <QUANTITATIVE_RESULT>
1.02

$$$$
>  <COMPOUND>
O=C(Nc1cc(C(F)(F)F)cc(C(F)(F)F)c1)c1cccc(Br)c1

>  <ASSAY_TARGET>
RAW-Dual (murine macrophage reporter line)

>  <QUANTITATIVE_RESULT>
1

$$$$

Please find the next compound below.
NF-kB reporter for CN(C)c1ccc(C=C2C(=O)C(=O)c3ccccc32)cc1Br is 0.989

* * *

test system: RAW-Dual (murine macrophage reporter line); test: IRF reporter (Lucia luciferase) activity fold change vs agonist alone; higher = enhanced IRF activity; details: modulator concentration 10 µM; agonist: MPLA […]
Please mark met if the recorded IRF reporter is equal to or greater than 1, and not met if it falls below.

Test whether the compound NCCCS(=O)(=O)O records IRF reporter of 1 or higher.
not met

Test whether the compound CN(C)CC/C=C1/c2ccccc2COc2ccc(CC(=O)O)cc21.Cl records IRF reporter of 1 or higher.
met

Test whether the compound CSC1CCN(C(=O)Nc2ccc(C)c(C)c2)C1 (configuration not stated) records IRF reporter of 1 or higher.
met

Test whether the compound O=C(c1ccc(C(F)(F)F)nc1)N1CC(n2cc(C3CC3)nn2)C1 records IRF reporter of 1 or higher.
met

Test whether the compound CCOc1ccc(N=Cc2c(Nc3ccc(OCC)cc3)nc3ccccn3c2=O)cc1 records IRF reporter of 1 or higher.
met

Test whether the compound Cc1ccc(NC(=O)C(C#N)=Cc2ccc(-c3cccc([N+](=O)[O-])c3)o2)cc1 records IRF reporter of 1 or higher.
met

Test whether the compound CNC(=O)c1ccc2cc(C3(O)CCn4cncc43)ccc2c1 (configuration not stated) records IRF reporter of 1 or higher.
not met

Test whether the compound CN(C)c1ccc(C=C(C#N)c2nc(-c3cc4ccccc4oc3=O)cs2)cc1 records IRF reporter of 1 or higher.
met

Test whether the compound CC(C)(C)NCC(O)COc1cccc2c1C[C@H](O)[C@H](O)C2 (some centres not stated) records IRF reporter of 1 or higher.
not met

Test whether the compound CSCCC(NC(C)=O)C(=O)N1CCc2nc3ccc(F)cn3c(=O)c2C1 (configuration not stated) records IRF reporter of 1 or higher.
met

Test whether the compound O=C(c1ccc(F)cc1)N(C1CCCCC1)C1CCCCC1 records IRF reporter of 1 or higher.
met

Test whether the compound COC(=O)C1=COC(OC2OC(CO)C(O)C(O)C2O)C2C1CC(O)C2C (configuration not stated) records IRF reporter of 1 or higher.
not met

Test whether the compound Cc1ccc(NC(=O)c2ccccc2Oc2ccccc2)cc1 records IRF reporter of 1 or higher.
met

Test whether the compound Cc1cc(C)c(NC(=O)c2ccc(Oc3nccs3)cc2)c(C)c1 records IRF reporter of 1 or higher.
met

Test whether the compound O=C(OCCN1CCCCC1)c1ccc(O)cc1 records IRF reporter of 1 or higher.
met

Test whether the compound Cc1cccc(N(CC(=O)Nc2ccc3c(c2)OCO3)S(C)(=O)=O)c1 records IRF reporter of 1 or higher.
met
